Source listed as the supplement of paper PMC9233669.

test system: biotinyl-Val-oxazolone; test: self-aminoacylation, catalytic enhancement (BVO) (fold over background); higher = more active; k-Seq, kA / k0A0; sequences stand for … in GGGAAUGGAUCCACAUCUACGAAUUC…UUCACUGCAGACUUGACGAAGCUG
Variants at the floor of the assay were thinned out.
measured-attribute: self-aminoacylation

residues | experimental-system | measured-attribute | result-value
AUUCACCUAGGUCGUCGGCUG [Fam2.2 aminoacylation ribozyme variant] | biotinyl-Val-oxazolone | self-aminoacylation | 1.97
CUACUGAAAACAAUCGGUCUG [Fam1A.1 aminoacylation ribozyme variant] | biotinyl-Val-oxazolone | self-aminoacylation | 0.706
AUUCACGUAGGGCAUCGGGUG [Fam2.2 aminoacylation ribozyme variant] | biotinyl-Val-oxazolone | self-aminoacylation | 5.03
AUUCACUUAGGUGAUCGGGUG [Fam2.2 aminoacylation ribozyme variant] | biotinyl-Val-oxazolone | self-aminoacylation | 2.5
AUUCACCAAGAUCAUCGGGUG [Fam2.2 aminoacylation ribozyme variant] | biotinyl-Val-oxazolone | self-aminoacylation | 3.21
AUCUACCUAGGUCAUCGGGUG [Fam2.2 aminoacylation ribozyme variant] | biotinyl-Val-oxazolone | self-aminoacylation | 6.18
ACUCACCUAGGUCCUCGGGUG [Fam2.2 aminoacylation ribozyme variant] | biotinyl-Val-oxazolone | self-aminoacylation | 4.46
AUUAUCCUGGUCAUCCAGUGA [Fam2.1 aminoacylation ribozyme variant] | biotinyl-Val-oxazolone | self-aminoacylation | 2.28
AAGAUUGCCAAUAGUCGCAAG [Fam3.1 aminoacylation ribozyme variant] | biotinyl-Val-oxazolone | self-aminoacylation | 1.81

---

system: biotinyl-Leu-oxazolone; test: self-aminoacylation, catalytic enhancement (BLO) (fold over background); higher = more active; k-Seq, kA / k0A0; sequences stand for … in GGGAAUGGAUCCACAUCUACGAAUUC…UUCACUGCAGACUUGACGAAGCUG
Variants at the floor of the assay were thinned out.
Hi all, reminder that labels come from self-aminoacylation, split as group 1: < 1; group 2: ≥ 1 and < 2; group 3: ≥ 2

residues | class-name
AAGUUUGCUAAUUGUCGCUAG [Fam3.1 aminoacylation ribozyme variant] | group 2
AUUCACCAAGAUCAUCGGGUG [Fam2.2 aminoacylation ribozyme variant] | group 3
GCCCACUUCAAGCAAUCGGUC [Fam1B.1 aminoacylation ribozyme variant] | group 2
AUUCACCUACGUCAUUGGGUG [Fam2.2 aminoacylation ribozyme variant] | group 3
CUAUUUCAAACAAUCCGUCUG [Fam1A.1 aminoacylation ribozyme variant] | group 1
CCACACUUGAAGCAACCGGUC [Fam1B.1 aminoacylation ribozyme variant] | group 1
AAGUGUGCUAAUGGUCGCAAG [Fam3.1 aminoacylation ribozyme variant] | group 1
AUUCCCCUAUGUCAUCGGGUG [Fam2.2 aminoacylation ribozyme variant] | group 3
ACUCACCUAGGUCGUCGGGUG [Fam2.2 aminoacylation ribozyme variant] | group 3
AUUAACCUAGGUUAUCGGGUG [Fam2.2 aminoacylation ribozyme variant] | group 3
CUACUUCAAACAAUCGGACUC [Fam1A.1 aminoacylation ribozyme variant] | group 1
AUUACCAUGGUCAUCGAGUGC [Fam2.1 aminoacylation ribozyme variant] | group 2
CAACACUUAAAGCAAUCGGUC [Fam1B.1 aminoacylation ribozyme variant] | group 1
AAGUUUGCUAGUAGUCGCAAG [Fam3.1 aminoacylation ribozyme variant] | group 1
AUUCACAUAGGCCAUCGGGUG [Fam2.2 aminoacylation ribozyme variant] | group 3
AUUCACUUAGGUCAUCGUGUG [Fam2.2 aminoacylation ribozyme variant] | group 1
AUUCACCUGGGUCAUCUGGUG [Fam2.2 aminoacylation ribozyme variant] | group 3
CUACUUCAAACUAUCGAUCUG [Fam1A.1 aminoacylation ribozyme variant] | group 1
CCACACUUCAGGCAAUCGGGC [Fam1B.1 aminoacylation ribozyme variant] | group 3
AUGACCCUGGUCAUCGAGUAA [Fam2.1 aminoacylation ribozyme variant] | group 3
AUUACCCCAGUCAUCGAGUGA [Fam2.1 aminoacylation ribozyme variant] | group 3
AAGCUUGCUAAUAGUCGCAAG [Fam3.1 aminoacylation ribozyme variant] | group 2
CUACUUUAAACAAUCGGACUG [Fam1A.1 aminoacylation ribozyme variant] | group 1
AUUGCCGUGGUCAUCGAGUGA [Fam2.1 aminoacylation ribozyme variant] | group 3
ACAGACUUCAAGCAAUCGGUC [Fam1B.1 aminoacylation ribozyme variant] | group 3
CCACACUUCAAGCAAUCGGGG [Fam1B.1 aminoacylation ribozyme variant] | group 3
AUUACCCUUGUCAUCGAGUGG [Fam2.1 aminoacylation ribozyme variant] | group 2
AUUCAACUAUGUCAUCGGGUG [Fam2.2 aminoacylation ribozyme variant] | group 3
CCACACUUGAAGCAAUCGUUC [Fam1B.1 aminoacylation ribozyme variant] | group 1
AACUUUGCUAAUAGUCGGAAG [Fam3.1 aminoacylation ribozyme variant] | group 2
AUUACCCGGGUCAUCGAGUGG [Fam2.1 aminoacylation ribozyme variant] | group 2
GUUACCCUGGUCAUCGAGAGA [Fam2.1 aminoacylation ribozyme variant] | group 2
CCACUUCAAACAAUCGGACUG [Fam1A.1 aminoacylation ribozyme variant] | group 2
AGGACCCUGGUCAUCGAGUGA [Fam2.1 aminoacylation ribozyme variant] | group 3
